- Target of assay: HLA-B*15:17
- Experimental details: IEDB peptide-MHC binding, purified MHC/direct/fluorescence; filed as Kd, often an IC50 or EC50 that approximates it; bounds were set here for any values at or beyond the usual limits of such assays
- Applied conditions: source organism: Giardia lamblia ATCC 50803
Property name: Kd
Enter the number, and then the unit.

Requested field: Kd. Item: VLLISDPGL
254 nM

* * *

So I've got a bunch of sequences here, and I need their Kd values.
- Target of assay: HLA-B*46:01
- Experimental details: IEDB peptide-MHC binding, purified MHC/direct/fluorescence; filed as Kd, often an IC50 or EC50 that approximates it; bounds were set here for any values at or beyond the usual limits of such assays
- Applied conditions: source organism: Yersinia pestis

Fill in the recorded Kd for this sequence, with HLA-B*46:01 as test system: MQLQLNCAY
≥ 20 µM

Another: RQLESRLGY
≥ 20 µM

Next record, please: AMQDPNPEV
≥ 20 µM

* * *

- Target of assay: HLA-B*51:01
- Experimental details: IEDB peptide-MHC binding, purified MHC/competitive/fluorescence; filed as Kd, often an IC50 or EC50 that approximates it; bounds were set here for any values at or beyond the usual limits of such assays
- Applied conditions: source organism: Rickettsia sibirica 246
pKd: −log10 of the molar value.
Property name: pKd

Give its pKd value. Item: YLKKLDDFY
≤ 4.70

* * *

- Target of assay: HLA-A*02:03
- Experimental details: IEDB peptide-MHC binding, purified MHC/direct/fluorescence; filed as Kd, often an IC50 or EC50 that approximates it; bounds were set here for any values at or beyond the usual limits of such assays
- Applied conditions: source organism: Reston ebolavirus
Property name: Kd

Quick one: Kd for WFQRIPLQW ?
≥ 20 µM

* * *

- Target of assay: HLA-B*15:17
- Experimental details: IEDB peptide-MHC binding, purified MHC/competitive/fluorescence; filed as Kd, often an IC50 or EC50 that approximates it; bounds were set here for any values at or beyond the usual limits of such assays
- Applied conditions: source organism: Reston ebolavirus - Reston (1989)
Property name: Kd

So what's the measured Kd for this one? GRYNLVPPK
≥ 20 µM

* * *

- Target of assay: HLA-A*02:02
- Experimental details: IEDB peptide-MHC binding, purified MHC/competitive/radioactivity; filed as Kd, often an IC50 or EC50 that approximates it; bounds were set here for any values at or beyond the usual limits of such assays
- Applied conditions: source organism: Homo sapiens
Property name: pKd
In plain terms, pKd is the concentration in mol/L turned into minus its base-10 logarithm.

Item under review: DLENRCQSL . Reported pKd?
4.91

* * *

- Target of assay: HLA-A*24:02
- Experimental details: IEDB peptide-MHC binding, purified MHC/competitive/fluorescence; filed as Kd, often an IC50 or EC50 that approximates it; bounds were set here for any values at or beyond the usual limits of such assays
- Applied conditions: source organism: Influenza A virus (A/X-31(H3N2))
Property name: Kd (nM)
Numeric answer only, unit nM assumed.

So what Kd did MYSDFHFI get with HLA-A*24:02?
146

* * *

- Target of assay: HLA-A*02:01
- Experimental details: IEDB peptide-MHC binding, purified MHC/competitive/fluorescence; bounds were set here for any values at or beyond the usual limits of such assays
- Applied conditions: source organism: Zaire ebolavirus
Please provide measured IC50 for the entries that follow.
Unit µM implied. Number only.

For the sequence FQESADSFL , what IC50 is on record?
14

Thanks! And QSVGHMMVI ?
4.89

Field entry: YSTTIRYQA
42.3

Can you handle LSFASLFLP next?
2.67

Do the same for CLPAAPDGI please
3.84

CLEKVQRQI , same question.
21.9

Try this sequence next: LFPQLSAIA
32.7
